# test target: T1, SP1 peptide (synthetic peptide with the sequence of the SP1 region of ANGPTL3) (mouse and human (the sequence is the …))
# T1 construct: also called ANGPTL3 SP1; hANGPTL3 SP1 peptide
# T1 peptide: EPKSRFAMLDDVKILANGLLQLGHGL
# test description: SPR (BIACORE 3000), antibody captured on anti-mouse IgG Fc chip, SP1 peptide injected, 1:1 model
endpoint name: koff (s⁻¹)
Kindly provide the numeric value in s⁻¹ only, without the unit symbol.

Answered examples (3):
binder: antibody 4.7.1 (antibody, IgG2b, V domains shown, Biotinylated in the alanine-scanning ELISA) VH: EVQLQQSGPELVKPGASVKMSCKASGYTFTSYVMHWVKQKPGQGLEWIGYFNPYNDGTKYNEKFKGKATLTSDKSSSTAYMELSSLTSEDSAVYYCAREGDYYGYFDYWGQGTTLTVSS VL: DIQMTQTTSSLSASLGDRVTISCRASQDISNFLNWYQQKPDGTVKLLIYYTSRLHSGVPSRFSGSGSGTDYSLTISNLEQEDIATYFCQQGNTLPPTFGGGTKLEIKR
endpoint name: koff
measured number: 0.00546
//
binder: antibody 5.50 (antibody, IgG2b, V domains shown, Biotinylated in the alanine-scanning ELISA) VH: EVQLQQSGPELVKPGASVKISCKASGFTFTDYYMNWVKQSHGESLEWIGDINPNNGGTIYNQKFRGKATLTVDKSSSTAYMELRSLTSEDSAVYYCVRLPWYFDVWGTGTTVTVSS VL: DVLMTQTPLSLPVSLGDQASISCRSSQSILHSNGNTYLEWFLQKPGQSPKLLIYKVSNRFSGVPDRFSGSGSGTDFTLKISRVEAEDLGVYYCFQGSHVPYTFGGGTKLEIKR
endpoint name: koff
measured number: 0.00193
//
binder: antibody 5.35 (antibody, IgG2a, V domains shown, Biotinylated in the alanine-scanning ELISA) VH: QVTLKESGPGILHPSQTLTLTCSFSGFSLNTFGLAVGWIRQPSGKGLEWLGHIWWDDHKYYNGVLKSRLTISKDSSKKQVFLRIANVDTADTARYYCARLETGTGFAYWGQGTLVTVSA VL: DIVLTQSTPSVPVTPGESVSISCRSSKSLLDSNGITYLYWFLQRPGQSPQLLIYRMSKLASGVPDRFSGSGSETAFTLRISRVEAEDVGVYYCMQPLEYPFTFGAGTKLELNG
endpoint name: koff
measured number: 0.0015

Consider now this further binder.
Task: Please look at this binder and report its koff: antibody 4.9.1 (antibody, IgG1, V domains shown, Biotinylated in the alanine-scanning ELISA) VH: EVQLQQSGPELVKPGASVKMSCKASGYTFTSYVMHWVKQKPGQGLEWIGYINPYNDGTKYNENFKGKATLTSDKSSSTAYMEFSSLTSEDSAVYYCAREGDYYGYFDYWGQGTTLTVSS VL: DIQMTQTTSSLSASLGDRVTISCRASQDIRNYLNWYQQKPDGTVKLLIYYTSRLHSGVPSRFSGSGSGTDYSLTISNLEQEDIATYFCQQGNTLPPTFGGGTKLEIKR
Result: 0.00778
